# relative viability per record follows
# Test system: NCI-H1650
# Experiment Notes: relative viability (nuclei count vs DMSO), 5 days (fraction); higher = more cells survive
# Reported Conditions: first compound 0.8 µM
Provide a numeric answer; units are not to be included.

CCCCCCCCCCCC1=C(O)C(=O)C=C(O)C1=O [Embelin] + Cc1nc(Nc2ncc(C(=O)Nc3c(C)cccc3Cl)s2)cc(N2CCN(CCO)CC2)n1 [Dasatinib] (partner 0.075 µM): 0.408
CCCCCCCCCCCC1=C(O)C(=O)C=C(O)C1=O [Embelin] + CC(=O)Nc1cccc(-n2c(=O)n(C3CC3)c(=O)c3c(Nc4ccc(I)cc4F)n(C)c(=O)c(C)c32)c1 [Trametinib] (partner 0.02 µM): 0.703
CCCCCCCCCCCC1=C(O)C(=O)C=C(O)C1=O [Embelin] + Nc1ncn([C@H]2C[C@H](O)[C@@H](CO)O2)c(=O)n1 [Decitabine] (partner 2 µM): 0.362
CCCCCCCCCCCC1=C(O)C(=O)C=C(O)C1=O [Embelin] + O=C(c1cc(Cc2n[nH]c(=O)c3ccccc23)ccc1F)N1CCN(C(=O)C2CC2)CC1 [Olaparib] (partner 8 µM): 0.85

// lookup relative viability for CCCCCCCCCCCC1=C(O)C(=O)C=C(O)C1=O [Embelin] + CCNC(=O)c1noc(-c2cc(C(C)C)c(O)cc2O)c1-c1ccc(CN2CCOCC2)cc1 [Luminespib] (partner 0.01 µM) 0.196

* * *

# System: NCI-H1993
# Experiment Notes: relative viability (nuclei count vs DMSO), 5 days (fraction); higher = more cells survive
# Reported Conditions: first compound 0.1265 µM
Readout Name: relative viability

Some solved entries appear below for comparison.
Clc1ccc(Nc2nnc(Cc3ccncc3)c3ccccc23)cc1 [Vatalanib] + CC(=O)Nc1cccc(-n2c(=O)n(C3CC3)c(=O)c3c(Nc4ccc(I)cc4F)n(C)c(=O)c(C)c32)c1 [Trametinib] (partner 0.02 µM): 0.452
C[C@@H]1CN(CC(=O)Nc2ccc3c(c2)Cc2cccc(-c4cc(=O)cc(N5CCOCC5)o4)c2S3)C[C@H](C)O1 + CCNC(=O)c1noc(-c2cc(C(C)C)c(O)cc2O)c1-c1ccc(CN2CCOCC2)cc1 [Luminespib] (partner 0.01 µM): 0.913
C[C@@H]1CN(CC(=O)Nc2ccc3c(c2)Cc2cccc(-c4cc(=O)cc(N5CCOCC5)o4)c2S3)C[C@H](C)O1 + C[C@@H](Oc1cc(-c2cnn(C3CCNCC3)c2)cnc1N)c1c(Cl)ccc(F)c1Cl [Crizotinib] (partner 1 µM): 0.846

Alright, here's another molecule for you.
// lookup relative viability for COc1cc(N2CCC(C(N)=O)CC2)ccc1Nc1nc(N)c(Cl)c(Nc2ccccc2S(=O)(=O)C(C)C)n1 [HG-5-88-01] + O=C(c1cc(Cc2n[nH]c(=O)c3ccccc23)ccc1F)N1CCN(C(=O)C2CC2)CC1 [Olaparib] (partner 8 µM) 1.03

* * *

# Tested on: NCI-H358
# Experiment Notes: relative viability (nuclei count vs DMSO), 5 days (fraction); higher = more cells survive
# Reported Conditions: first compound 0.1265 µM
# relative viability per record follows
Provide a numeric answer; units are not to be included.

C[C@@H]1CN(CC(=O)Nc2ccc3c(c2)Cc2cccc(-c4cc(=O)cc(N5CCOCC5)o4)c2S3)C[C@H](C)O1 + CS(=O)(=O)CCNCc1ccc(-c2ccc3ncnc(Nc4ccc(OCc5cccc(F)c5)c(Cl)c4)c3c2)o1 [Lapatinib] (partner 2 µM): 0.427
Clc1ccc(Nc2nnc(Cc3ccncc3)c3ccccc23)cc1 [Vatalanib] + O=C(CCCCCCC(=O)Nc1ccccc1)NO [Vorinostat] (partner 1 µM): 0.719
Clc1ccc(Nc2nnc(Cc3ccncc3)c3ccccc23)cc1 [Vatalanib] + NC(=O)Nc1cc(-c2cccc(F)c2)sc1C(=O)N[C@H]1CCCNC1 [AZD7762] (partner 0.2 µM): 0.441

// lookup relative viability for COc1cc(N2CCC(C(N)=O)CC2)ccc1Nc1nc(N)c(Cl)c(Nc2ccccc2S(=O)(=O)C(C)C)n1 [HG-5-88-01] + CCNC(=O)c1noc(-c2cc(C(C)C)c(O)cc2O)c1-c1ccc(CN2CCOCC2)cc1 [Luminespib] (partner 0.01 µM) 0.256

* * *

# Tested on: NCI-H1395
# Experiment Notes: relative viability (nuclei count vs DMSO), 5 days (fraction); higher = more cells survive
# Reported Conditions: first compound 1.265 µM
Readout Name: relative viability
Provide a numeric answer; units are not to be included.

COc1cc(N2CCC(C(N)=O)CC2)ccc1Nc1nc(N)c(Cl)c(Nc2ccccc2S(=O)(=O)C(C)C)n1 [HG-5-88-01] + C[C@]1(O)C[C@@H](c2nc(-c3ccc4ccc(-c5ccccc5)nc4c3)c3c(N)nccn32)C1 [Linsitinib] (partner 1 µM): 0.856
Clc1ccc(Nc2nnc(Cc3ccncc3)c3ccccc23)cc1 [Vatalanib] + Cc1nc(NC(=O)N2CCC[C@H]2C(N)=O)sc1-c1ccnc(C(C)(C)C(F)(F)F)c1 [Alpelisib] (partner 2 µM): 1.08
COc1cc(N2CCC(C(N)=O)CC2)ccc1Nc1nc(N)c(Cl)c(Nc2ccccc2S(=O)(=O)C(C)C)n1 [HG-5-88-01] + Nc1ncn([C@H]2C[C@H](O)[C@@H](CO)O2)c(=O)n1 [Decitabine] (partner 2 µM): 0.682

Kindly state the measured relative viability obtained for COc1cc(N2CCC(C(N)=O)CC2)ccc1Nc1nc(N)c(Cl)c(Nc2ccccc2S(=O)(=O)C(C)C)n1 [HG-5-88-01] + N=C(N)NC(=N)NCCc1ccccc1 [Phenformin] (partner 250 µM) with NCI-H1395. 0.449

Kindly state the measured relative viability obtained for COc1cc(N2CCC(C(N)=O)CC2)ccc1Nc1nc(N)c(Cl)c(Nc2ccccc2S(=O)(=O)C(C)C)n1 [HG-5-88-01] + NC(=O)Nc1cc(-c2cccc(F)c2)sc1C(=O)N[C@H]1CCCNC1 [AZD7762] (partner 0.2 µM) with NCI-H1395. 0.384

Kindly state the measured relative viability obtained for Clc1ccc(Nc2nnc(Cc3ccncc3)c3ccccc23)cc1 [Vatalanib] + CCNC(=O)c1noc(-c2cc(C(C)C)c(O)cc2O)c1-c1ccc(CN2CCOCC2)cc1 [Luminespib] (partner 0.01 µM) with NCI-H1395. 0.66

* * *

# System: NCI-H2228
# Experiment Notes: relative viability (nuclei count vs DMSO), 5 days (fraction); higher = more cells survive
# Reported Conditions: first compound 0.04 µM
# relative viability per record follows
Provide a numeric answer; units are not to be included.

Some solved entries appear below for comparison.
COc1cc(N2CCC(C(N)=O)CC2)ccc1Nc1nc(N)c(Cl)c(Nc2ccccc2S(=O)(=O)C(C)C)n1 [HG-5-88-01] + CC1(C)CCC(c2ccc(Cl)cc2)=C(CN2CCN(c3ccc(C(=O)NS(=O)(=O)c4ccc(N[C@H](CCN5CCOCC5)CSc5ccccc5)c(S(=O)(=O)C(F)(F)F)c4)cc3)CC2)C1 [Navitoclax] (partner 0.5 µM): 0.65
Clc1ccc(Nc2nnc(Cc3ccncc3)c3ccccc23)cc1 [Vatalanib] + CCNC(=O)c1noc(-c2cc(C(C)C)c(O)cc2O)c1-c1ccc(CN2CCOCC2)cc1 [Luminespib] (partner 0.01 µM): 0.145

Alright, here's another compound for you.
Kindly state the measured relative viability obtained for C[C@@H]1CN(CC(=O)Nc2ccc3c(c2)Cc2cccc(-c4cc(=O)cc(N5CCOCC5)o4)c2S3)C[C@H](C)O1 + COc1cccc2cc(-c3nc([C@H]4CC[C@H](C(=O)O)CC4)n4ncnc(N)c34)[nH]c12 [OSI-027] (partner 0.5 µM) with NCI-H2228. 0.659

* * *

# Tested on: LCLC-103H
# Experiment Notes: relative viability (nuclei count vs DMSO), 5 days (fraction); higher = more cells survive
# Reported Conditions: first compound 4 µM
# relative viability per record follows
Provide a numeric answer; units are not to be included.

Clc1ccc(Nc2nnc(Cc3ccncc3)c3ccccc23)cc1 [Vatalanib] + O=C(c1cc(Cc2n[nH]c(=O)c3ccccc23)ccc1F)N1CCN(C(=O)C2CC2)CC1 [Olaparib] (partner 8 µM): 0.764
C[C@@H]1CN(CC(=O)Nc2ccc3c(c2)Cc2cccc(-c4cc(=O)cc(N5CCOCC5)o4)c2S3)C[C@H](C)O1 + Cc1nc(NC(=O)N2CCC[C@H]2C(N)=O)sc1-c1ccnc(C(C)(C)C(F)(F)F)c1 [Alpelisib] (partner 2 µM): 1.02

Alright, here's another compound for you.
// lookup relative viability for Clc1ccc(Nc2nnc(Cc3ccncc3)c3ccccc23)cc1 [Vatalanib] + N=C(N)NC(=N)NCCc1ccccc1 [Phenformin] (partner 250 µM) 0.316

* * *

# Tested on: NCI-H2126
# Experiment Notes: relative viability (nuclei count vs DMSO), 5 days (fraction); higher = more cells survive
# Reported Conditions: first compound 0.03162 µM
# relative viability per record follows
Provide a numeric answer; units are not to be included.

Some solved entries appear below for comparison.
CC(C)Oc1cc(Nc2nc(N[C@@H](C)c3ccc(F)cn3)ncc2Cl)n[nH]1 [AZ23] + C[C@]1(O)C[C@@H](c2nc(-c3ccc4ccc(-c5ccccc5)nc4c3)c3c(N)nccn32)C1 [Linsitinib] (partner 1 µM): 0.739
CC(C)Oc1cc(Nc2nc(N[C@@H](C)c3ccc(F)cn3)ncc2Cl)n[nH]1 [AZ23] + COc1cc2c(Oc3ccc(NC(=O)C4(C(=O)Nc5ccc(F)cc5)CC4)cc3F)ccnc2cc1OCCCN1CCOCC1 [Foretinib] (partner 0.25 µM): 1.21

Kindly state the measured relative viability obtained for CC(C)Oc1cc(Nc2nc(N[C@@H](C)c3ccc(F)cn3)ncc2Cl)n[nH]1 [AZ23] + O=C(CCCCCCC(=O)Nc1ccccc1)NO [Vorinostat] (partner 1 µM) with NCI-H2126. 0.873

Ref: the supplement of paper PMC10307832
